tested on: primary AML patient cells (S011); assay: viability relative to DMSO control (fraction); higher = less drug effect (more viable cells); conditions: 0.016 µM; 48 h
Each record here notes measured viability.
quantity_kind: viability

smiles_text=CC[C@H](Nc1ncnc2[nH]cnc12)c1nc2cccc(F)c2c(=O)n1-c1ccccc1 quantity_kind=viability measured=0.873
smiles_text=Nc1nc(F)nc2c1ncn2[C@@H]1O[C@H](CO)[C@@H](O)[C@@H]1O quantity_kind=viability measured=0.942
smiles_text=CC(C)c1cc(-c2n[nH]c(=O)n2-c2ccc3c(ccn3C)c2)c(O)cc1O quantity_kind=viability measured=0.778
smiles_text=CC1(COc2ccc3c(c2)ncn3-c2ccc3cccc(N4CCC(N)CC4)c3n2)COC1 quantity_kind=viability measured=1.14
smiles_text=Cc1sc2c(c1C)C(c1ccc(Cl)cc1)=N[C@@H](CC(=O)Nc1ccc(O)cc1)c1nnc(C)n1-2 quantity_kind=viability measured=1

====

system: primary AML patient cells (S091); assay: viability relative to DMSO control (fraction); higher = less drug effect (more viable cells); details: 0.024 µM; 48 h
Each record here notes measured viability.
quantity_kind: viability

compound="Nc1nc(Cl)nc2c1ncn2[C@@H]1O[C@H](CO)[C@@H](O)[C@@H]1F [Clofarabine]" test_system="primary AML patient cells (S091)" measured=0.661
compound="Oc1ccc(/C=C/c2cc(O)cc(O)c2)cc1 [Resveratrol]" test_system="primary AML patient cells (S091)" measured=0.863
compound="N#Cc1ccnc(N2C(=O)CC[C@H]2C(=O)N(c2cncc(F)c2)[C@H](C(=O)NC2CC(F)(F)C2)c2ccccc2Cl)c1 [AG-120]" test_system="primary AML patient cells (S091)" measured=1.02
compound="Nc1ncn([C@H]2C[C@H](O)[C@@H](CO)O2)c(=O)n1 [Decitabine (Dacogen)]" test_system="primary AML patient cells (S091)" measured=0.958
compound="CS(=O)(=O)c1ccc(C(=O)Nc2ccc(Cl)c(-c3ccccn3)c2)c(Cl)c1 [Vismodegib]" test_system="primary AML patient cells (S091)" measured=0.973

====

test system: primary CLL patient cells (S043); test: viability relative to DMSO control (fraction); higher = less drug effect (more viable cells); settings: 3 µM; 48 h
quantity_kind: viability

compound="O=C(c1cc(Cc2n[nH]c(=O)c3ccccc23)ccc1F)N1CCN(C(=O)C2CC2)CC1 [Olaparib]" measured=0.867
compound="N#CC[C@H](C1CCCC1)n1cc(-c2ncnc3[nH]ccc23)cn1 [Ruxolitinib]" measured=1.05
compound="CCc1nc(C(N)=O)c(Nc2ccc(N3CCC(N4CCN(C)CC4)CC3)c(OC)c2)nc1NC1CCOCC1 [Gilteritinib]" measured=0.519
compound="CS(=O)(=O)c1ccc(C(=O)Nc2ccc(Cl)c(-c3ccccn3)c2)c(Cl)c1 [Vismodegib]" measured=0.922
compound="Oc1ccc(/C=C/c2cc(O)cc(O)c2)cc1 [Resveratrol]" measured=0.799

====

tested on: primary AML patient cells (S056); assay: viability relative to DMSO control (fraction); higher = less drug effect (more viable cells); details: 0.024 µM; 48 h
Each record here notes measured viability.
quantity_kind: viability

smiles_text=Nc1nc(=S)c2[nH]cnc2[nH]1 quantity_kind=viability measured=0.912
smiles_text=N#Cc1ccnc(N2C(=O)CC[C@H]2C(=O)N(c2cncc(F)c2)[C@H](C(=O)NC2CC(F)(F)C2)c2ccccc2Cl)c1 quantity_kind=viability measured=0.866
smiles_text=CCc1nc(C(N)=O)c(Nc2ccc(N3CCC(N4CCN(C)CC4)CC3)c(OC)c2)nc1NC1CCOCC1 quantity_kind=viability measured=0.404
smiles_text=Nc1ncn([C@H]2C[C@H](O)[C@@H](CO)O2)c(=O)n1 quantity_kind=viability measured=0.971
